From: patent US20100086555A1

TESTED SYSTEM: H5 HA A/INDO/5/05 (on pseudotypes and on infectious virus) (influenza A virus A/INDO/5/05 (H5N1))
PROTOCOL SUMMARY: cell-based or functional assay
READOUT LABEL: Neutralization of HA-pseudotypes (IC90)
The reply should consist of the numeric value with the unit placed after it.

The binder listed as FE53 (antibody, V domains shown) VH: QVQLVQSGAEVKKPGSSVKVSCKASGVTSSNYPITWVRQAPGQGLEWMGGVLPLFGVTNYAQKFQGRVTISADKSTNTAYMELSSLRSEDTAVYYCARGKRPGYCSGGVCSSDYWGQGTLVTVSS VL: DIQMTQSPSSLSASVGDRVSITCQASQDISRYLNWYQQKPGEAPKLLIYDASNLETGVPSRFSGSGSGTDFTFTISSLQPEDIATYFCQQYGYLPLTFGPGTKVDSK shows Neutralization of HA-pseudotypes (IC90) equal to 0.491 µg/mL

The binder listed as FC6 (antibody, V domains shown) VH: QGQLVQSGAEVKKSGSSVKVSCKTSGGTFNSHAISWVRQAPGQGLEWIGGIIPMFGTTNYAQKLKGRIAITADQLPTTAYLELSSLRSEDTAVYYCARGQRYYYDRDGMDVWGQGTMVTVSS VL: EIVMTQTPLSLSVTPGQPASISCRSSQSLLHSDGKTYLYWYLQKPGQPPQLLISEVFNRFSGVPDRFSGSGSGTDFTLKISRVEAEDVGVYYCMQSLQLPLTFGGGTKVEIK shows Neutralization of HA-pseudotypes (IC90) equal to 0.242 µg/mL

The binder listed as FB139 (antibody, V domains shown) VH: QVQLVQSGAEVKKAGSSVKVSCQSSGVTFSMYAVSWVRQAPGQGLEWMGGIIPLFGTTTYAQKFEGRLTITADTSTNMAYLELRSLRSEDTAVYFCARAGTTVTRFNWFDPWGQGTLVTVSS VL: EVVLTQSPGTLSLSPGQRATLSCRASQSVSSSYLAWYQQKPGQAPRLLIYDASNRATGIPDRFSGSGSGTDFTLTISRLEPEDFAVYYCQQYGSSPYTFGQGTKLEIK shows Neutralization of HA-pseudotypes (IC90) equal to 0.106 µg/mL

The binder listed as FE43 (antibody, V domains shown) VH: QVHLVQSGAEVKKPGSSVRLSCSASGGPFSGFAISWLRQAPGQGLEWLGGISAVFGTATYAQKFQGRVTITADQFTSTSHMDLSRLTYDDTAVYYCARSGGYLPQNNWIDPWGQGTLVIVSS VL: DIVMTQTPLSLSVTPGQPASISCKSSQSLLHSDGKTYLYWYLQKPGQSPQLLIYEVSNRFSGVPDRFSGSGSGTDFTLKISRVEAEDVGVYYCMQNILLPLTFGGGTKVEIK shows Neutralization of HA-pseudotypes (IC90) equal to 0.39 µg/mL
